Target: hMC-4R (Homo sapiens)
Construct: expressed in transfected cells; host or cells: HEK293 cells (membrane preparations)
Sequence (P32245 whole entry): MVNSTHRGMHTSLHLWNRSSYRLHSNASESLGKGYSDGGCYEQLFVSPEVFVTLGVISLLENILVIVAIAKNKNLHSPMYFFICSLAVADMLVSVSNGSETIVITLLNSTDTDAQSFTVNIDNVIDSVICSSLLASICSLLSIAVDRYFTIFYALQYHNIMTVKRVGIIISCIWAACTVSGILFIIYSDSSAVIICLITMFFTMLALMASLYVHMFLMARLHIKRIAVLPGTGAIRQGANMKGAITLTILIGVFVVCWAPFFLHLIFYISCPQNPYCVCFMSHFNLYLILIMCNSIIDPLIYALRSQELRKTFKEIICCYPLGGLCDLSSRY
Test: functional assay, homogeneous membrane based cAMP fluorescence polarization assay
Format: biochemical
Details: read-out: % activation functional assay
Emax values by entry
All answers are understood in %, so give the number only.

### Prompt Missing value: Emax, hMC-4R (Homo sapiens), entry CC(C)CCN(CCC(C)C)C(=O)c1ccc2nc(C3CNC(=O)C3)n(CCCN3CCCC3)c2c1 (stereo not shown) [Example 34] . Fill in?
### Response -10

### Prompt Can you check CC(C)CCN(CCC(C)C)C(=O)c1ccc2nc(C3CCN(C(=O)OC(C)(C)C)CC3)n(CCCN3CCCC3)c2c1 [Example 11] next?
### Response -33

### Prompt Can you check COc1ccc(C2(c3nc4ccc(C(=O)N(CCC(C)C)CCC(C)C)cc4n3CCCN3CCCC3)CC2)cn1 [Example 6] next?
### Response -11

### Prompt Can you check COc1ccc(-c2nc3ccc(C(=O)N(CCC(C)C)CCC(C)C)cc3n2CC(O)CN2CCCC2)cn1 (stereo not shown) [Example 3] next?
### Response -25

Others:
### Prompt Missing value: Emax, hMC-4R (Homo sapiens), entry CC(C)CCN(CCC(C)C)C(=O)c1ccc2nc(C3CN(C)C3)n(CCCN3CCCC3)c2c1 [Example 32] . Fill in?
### Response -18

### Prompt Can you check CC(C)CCN(CCC(C)C)C(=O)c1ccc2nc([C@H]3CC[C@H](N(C)C)CC3)n(CCCN3CCCC3)c2c1 [Example 17] next?
### Response -6

### Prompt Can you check CC(C)CCN(CCC(C)C)C(=O)c1ccc2nc(CC3CCNCC3)n(CCCN3CCCC3)c2c1 [Example 28] next?
### Response -6

### Prompt Can you check CC(C)CCN(CCC(C)C)C(=O)c1ccc2nc(C3CCN(C)C(=O)C3)n(CCCN3CCCC3)c2c1 (stereo not shown) [Example 36] next?
### Response -5

### Prompt Can you check CC(C)CCN(CCC(C)C)C(=O)c1ccc2nc(CC3CCN(CCO)CC3)n(CCCN3CCCC3)c2c1 [Example 14] next?
### Response -18

### Prompt Can you check CC(C)CCN(CCC(C)C)C(=O)c1ccc2nc(CN3CCN(CCO)CC3)n(CCCN3CCCC3)c2c1 [Example 9] next?
### Response -9

### Prompt Can you check CC(C)CCN(CCC(C)C)C(=O)c1ccc2nc(C3CCN(C)CC3)n(CCCN3CCCC3)c2c1 [Example 24] next?
### Response -44

### Prompt Can you check CC(C)CCN(CCC(C)C)C(=O)c1ccc2nc(C3CCNCC3)n(CCCN3CCCC3)c2c1 [Example 23] next?
### Response -39

### Prompt Can you check CC(C)CCN(CCC(C)C)C(=O)c1ccc2nc([C@H]3CC[C@@H](N(C)C)CC3)n(CCCN3CCCC3)c2c1 [Example 18] next?
### Response -19
